The measurements presented in this section are drawn from ChEMBL document CHEMBL1137927.

target: Lysophosphatidic acid receptor 1 (Homo sapiens); assay: In vitro ability to antagonize LPA-evoked [35S]GTP-gamma-S binding to lysophosphatidic acid receptor 1 in HEK293T cell lines
Sequence (Q92633 whole entry): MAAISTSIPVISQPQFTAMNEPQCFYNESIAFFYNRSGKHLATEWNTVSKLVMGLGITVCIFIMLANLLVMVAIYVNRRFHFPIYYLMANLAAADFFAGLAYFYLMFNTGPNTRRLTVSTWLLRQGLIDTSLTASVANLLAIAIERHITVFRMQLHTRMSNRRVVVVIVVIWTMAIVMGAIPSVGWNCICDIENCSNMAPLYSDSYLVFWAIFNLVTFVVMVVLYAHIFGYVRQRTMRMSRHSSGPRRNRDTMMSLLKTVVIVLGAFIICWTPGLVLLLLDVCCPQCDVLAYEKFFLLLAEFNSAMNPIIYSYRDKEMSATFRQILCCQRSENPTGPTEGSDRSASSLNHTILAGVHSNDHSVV
pIC50: −log10 of the molar value.
// pIC50 lookup, one value per entry
ASSAY_READOUT: pIC50

>>> observed_value("CCCCCCCC/C=C\\CCCCCCCC(=O)N[C@@H](COP(=O)(O)O)Cc1ccc(OCc2ccccc2)cc1")
5.60
>>> observed_value("CCCCCCCC/C=C\\CCCCCCCC(=O)N[C@@H](COP(=O)(O)O)Cc1ccc(OC)cc1")
"< 5.00"
>>> observed_value("CCCCCCCCCCCCCCCC(=O)NC(COP(=O)(O)O)Cc1ccc(OCc2cccc(OC)c2)cc1 (centres undefined)")
"< 5.00"
>>> observed_value("CCCCCCCC/C=C\\CCCCCCCC(=O)N[C@H](COP(=O)(O)O)Cc1ccc(OC(=O)c2ccc(CCCCC)cc2)cc1")
"< 5.00"
